B1: ZBTB22 (parent)
chain: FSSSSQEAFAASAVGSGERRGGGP

Variants of: B1
assay_remarks: protein stability index of a GFP-peptide fusion (GPS, HEK-293T) (PSI 1-6); higher = more stable;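 also: lentivirally expressed fusions sorted by FACS into six bins by GFP to DsRed ratio, PSI derived from sequencing read proportions per bin multiplied by bin number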
measurement_setup: c terminus: a fixed tail appended
Use true (1) when the recorded protein stability index is no lower than 4; use false (0) when it is lower.

Solved entries:
GSSSSQEAFAASAVGSGERRGGGP [F1G]    true (1)
FSSSSQEAFAASANGSGERRGGGP [V14N]    false (0)
FSSSSQEAFAASPVGSGERRGGGP [A13P]    false (0)
FSSSSQEAFAASAVGSGERRGGGC [P24C]    false (0)
FSSSSQEAFAASASGSGERRGGGP [V14S]    false (0)

Query string: Identify whether the reported protein stability index of the following variant is 4 or greater: FSSSSQEAFAASAVGSPERRGGGP [G17P]
Result string: false (0)
